assay_explanation: in vivo
measurement_parameters: monkey, serum, intravenous, 2 mg/kg
metric_name: concentration at 1 hr (ng/mL)

P: CC(C)NCC(O)COc1ccc(CC(N)=O)cc1 (centres unmarked) [ATENOLOL, reference compound]
Q: COc1cc(CC(=O)N2CC(O)C(O)C2C(=O)N2CCN(CC(=O)O)CC2)ccc1NC(=O)Nc1ccccc1C (centres unmarked)
When their concentration at 1 hr values are compared, which is larger, P or Q ? Pick one and reply with its label.
Q
(Q: 2220 ng/mL, P: 771 ng/mL)

###

Recorded melting point by entry

See these solved cases before continuing.
The reported value for COc1cc(CC(=O)N[C@@H](C)COc2ccc(C(=O)O)cc2N)ccc1NC(=O)Nc1ccccc1C [Compound 293] in terms of melting point is 200 to 204 °C

The reported value for COc1cc(CC(=O)N2CC[C@H](Oc3ccc(C(=O)O)cc3)C2)ccc1NC(=O)Nc1ccccc1C [Compound 182] in terms of melting point is 131 to 135 °C

The reported value for COc1cc(CC(=O)N2C3CCCCC3C[C@H]2COc2ccc(C(=O)O)cc2)ccc1NC(=O)Nc1ccccc1Cl (stereo partly shown) [Compound 166] in terms of melting point is 133 to 136 °C

The reported value for COc1cc(CC(=O)N2C3CCCCC3C[C@H]2COC2CCC(C(=O)O)CC2)ccc1NC(=O)Nc1ccccc1Br (stereo partly shown) [Compound 179] in terms of melting point is 115 to 120 °C

The reported value for Cc1cc(CC(=O)N2C[C@@H](F)C[C@H]2COc2ccc(C(=O)O)cc2)ccc1NC(=O)Nc1ccccc1 [Compound 73] in terms of melting point is 130 to 135 °C

The reported value for Cc1cc(CC(=O)N2CCC[C@H]2COc2ccc(C(=O)O)cc2)ccc1NC(=O)Nc1ccccc1Br [Compound 82] in terms of melting point is 125 to 130 °C

Now for a further compound.
The reported value for COc1cc(CC(=O)N2CCC[C@H]2COC2CCC(C(=O)O)CC2)ccc1NC(=O)Nc1ccccc1Cl (stereo partly shown) [Compound 175] in terms of melting point is 111 to 115 °C

###

Recorded MRT by entry
assay_explanation: Pharmacokinetic evaluation in rat
Format: in vivo
measurement_parameters: plasma, po, 10 mg/kg, 10 mg/kg (p.o.), line of AUC 0–∞, read-out: MRT (mean residence time)
Provide the reading as a plain figure in h.

The reported value for Cc1cc(CC(=O)N2C[C@@H](F)C[C@H]2COc2ccc(C(=O)O)cc2)ccc1NC(=O)Nc1ccccc1Cl [Compound 79] in terms of MRT is 0.7

Now for a further compound.
The reported value for Cc1ccccc1NC(=O)Nc1ccc(CC(=O)N2C[C@@H](F)C[C@H]2COc2ccc(C(=O)O)cc2)cc1Cl [Compound 90] in terms of MRT is 8.8

###

assay_explanation: Pharmacokinetic evaluation in mouse
Format: in vivo
measurement_parameters: plasma, iv, 10 mg/kg, 10 mg/kg (i.v.), line of AUC 0–∞, read-out: MRT (mean residence time)
Recorded MRT by entry
Provide the reading as a plain figure in min.

The reported value for Cc1ccccc1NC(=O)Nc1ccc(CC(=O)N2C[C@@H](F)C[C@H]2COc2ccc(C(=O)O)cc2)cc1Cl in terms of MRT is 42

Now for a further molecule.
The reported value for Cc1cc(CC(=O)N2C[C@@H](F)C[C@H]2COc2ccc(C(=O)O)cc2)ccc1NC(=O)Nc1ccccc1Br in terms of MRT is 36
